System: SNB-75 CNS
Test: NCI-60 one-dose screen, 48 h (100 = growth as untreated, 0 = no growth, -100 = all killed)
Conditions: 10 µM unless noted
Compounds without any hit were thinned out: in the full panel of roughly 83,000, 20% have a hit.
// reported growth per item
readout_kind: growth (%)

> print(dat)
                                        smi  endpoint.unit  numeric.value
1          CC(C)C(=O)OCCOc1ccc(C(C)(C)C)cc1              %           94.1
2  N#C/C(=C\NC(=S)N=Nc1c(O)[nH]c2ccccc12)c1nc2ccccc2s1              %           85.1
3                CC(C)N(C(=O)c1ccccc1)C(C)C              %            100
4                       Cc1nc(O)cc(=O)[nH]1              %           97.1
